- System: NCI-H522
- PROTOCOL: NCI tumour cell line growth inhibition, 48 h
Calls of active or inactive are those of the source. No stated cut-off is given here; in the data, active = GI50 up to about 1.1 µM and inactive = higher.
Outcome codes: 1 (yes) for active, 0 (no) for inactive

- COMPOUND: "CCN(CC)CCC(=O)N1C/C(=C/c2ccccc2)C(=O)/C(=C\\c2ccccc2)C1"
  LABEL_VALUE: "1 (yes)"
- COMPOUND: "O=C1CSC(c2cccs2)N1c1nc2cc3sc(N4C(=O)CSC4c4cccs4)nc3cc2s1 (stereo unspecified)"
  LABEL_VALUE: "0 (no)"
- COMPOUND: "C=C[C@@]1(C)CC(=O)[C@]2(O)[C@@]3(C)[C@@H](O)CCC(C)(C)[C@@H]3[C@H](O)[C@@H](OC(C)=O)[C@@]2(C)O1"
  LABEL_VALUE: "0 (no)"
- COMPOUND: "O=C1OC(=O)c2cc(S(=O)(=O)c3ccc4c(c3)C(=O)OC4=O)ccc21"
  LABEL_VALUE: "0 (no)"
- COMPOUND: "CCC1CC(C)=CCN1S(=O)(=O)c1ccc(C)cc1 (stereo unspecified)"
  LABEL_VALUE: "0 (no)"
- COMPOUND: "COc1ccc(/C=C\\c2cc(OC)c(OC)c(OC)c2)cc1OC(=O)NCCN(C)C"
  LABEL_VALUE: "1 (yes)"
- COMPOUND: "COc1cc2cc[n+]3c(C)c4cc(OC)c(OC)cc4c([O-])c3c2cc1OC"
  LABEL_VALUE: "0 (no)"
- COMPOUND: "CN1C(=O)N(c2ccccc2)C2(CCN(CC3COc4ccccc4O3)CC2)C1=O (stereo unspecified)"
  LABEL_VALUE: "0 (no)"
- COMPOUND: "COc1ccccc1/C=C1\\Sc2scc(-c3cccc([N+](=O)[O-])c3)[n+]2C1=O"
  LABEL_VALUE: "0 (no)"
- COMPOUND: "COc1cc2c(cc1C)NC(=O)/C2=C/c1cccnc1"
  LABEL_VALUE: "0 (no)"
- COMPOUND: "O=C(N/C(=C\\c1ccc([N+](=O)[O-])cc1)c1nc2ccccc2s1)c1ccccc1"
  LABEL_VALUE: "0 (no)"
